# System: 786-0 renal
# Assay protocol: NCI-60 one-dose screen, 48 h (100 = growth as untreated, 0 = no growth, -100 = all killed)
# Condition info: 10 µM unless noted
# Protocol: Cells are grown in 96 well plates and exposed to the test compound for 48 hours. Compounds are tested at a single concentration, which is 10^-5 M for most compounds. The reported endpoint is percent growth (GI% or GIPRCNT), where numbers from 0 - 100% represent growth inhibition, and numbers from -100% - 0 represent cell death. For example, a value of 40 represents 60% growth inhibition. A value of 0 means no net growth occurred over the course of the experiment. […]
Compounds without any hit were thinned out: in the full panel of roughly 83,000, 20% have a hit.
Experimental endpoint: growth (%)
Numbers only, in %.

Record excerpt, results attached:
The value of growth measured for the compound N/C(=N\OC(=O)c1ccccc1)C(Cc1ccccc1)C(=O)NOC(=O)c1ccccc1 (stereo unspecified) turned out to be 48.7

What the record says about COc1ccc(C(=O)O)cc1.[Ag] : growth is 107

# compound CC1CCN(CCCCCOc2ccc3oc4ccc(Cl)cc4c(=O)c3c2)CC1 ; its growth = 45.8

// batch mode: one growth value per listed entry
1. CNC(=O)c1c(NC(=O)c2ccc(C(C)C)cc2)sc2c1CCC(=O)C2
2. COc1ccc(-c2cc(-c3cc4ccccc4oc3=O)n(-c3ccccc3)n2)cc1
3. C[C@@H]1N=C(c2ccc3ccccc3c2)Nc2nc3ccccn3c2C1=O
4. O=C(Nc1ccncc1)C(=O)c1cn(S(=O)(=O)c2cccc(Cl)c2F)c2ccccc12
5. COc1ccc(-c2cc(-c3cn(-c4cccc(Cl)c4)nc3-c3ccc(OC)cc3)[nH]c(=S)n2)cc1
6. Cc1cccc2nc3ccccc3c(Nc3ccc(NS(C)(=O)=O)cc3)c12

Result:
1: 13; 2: -31.5; 3: 69.3; 4: 77.3; 5: 96.5; 6: 38.2

Give growth for each listed item.
1. O=C1OCC2=C1C(c1ccccc1)c1cc3c(cc1N2CCO)CCC3 (stereo unspecified)
2. COc1ccc2c(c1)sc1nc(-c3ccccc3)c(-c3cccc4ccccc34)n12

Result:
[8.65, 51.7]

----------
# Tested on: A549/ATCC NSCLC
# Assay protocol: NCI-60 one-dose screen, 48 h (100 = growth as untreated, 0 = no growth, -100 = all killed)
# Condition info: 10 µM unless noted
The panel holds about 83,000 compounds, 20% with a hit somewhere; the sample as a whole holds those more often.
For each of the compounds below, state its growth.
Numbers only, in %.

The compound listed as COc1ncnc2[nH]cc(CN3CCN(c4ccc(F)cc4)CC3)c12 shows growth equal to 96.5

The compound identified as Clc1cccc(CNc2c3ccccc3nc3ccccc23)c1 registered its growth at 27.9

Record CC[C@H](C)[C@H](N)C(=O)O , field growth: 103

***
// recorded growth for O=C(NNC(=O)c1cccc(Cl)c1)c1ccccc1 : 97.6

----------
Please provide measured growth for the entries that follow.
# Tested on: KM12 colon
# Assay protocol: NCI-60 one-dose screen, 48 h (100 = growth as untreated, 0 = no growth, -100 = all killed)
# Condition info: 10 µM unless noted
# Method: Growth inhibition of the KM12 human tumor cell line is measured as a screen for anti-cancer activity. Cells are grown in 96 well plates and exposed to the test compound for 48 hours. Compounds are tested at a single concentration, which is 10^-5 M for most compounds. The reported endpoint is percent growth (GI% or GIPRCNT), where numbers from 0 - 100% represent growth inhibition, and numbers from -100% - 0 represent cell death. For example, a value of 40 represents 60% growth inhibition. […]
The panel holds about 83,000 compounds, 20% with a hit somewhere; the sample as a whole holds those more often.
Give bare numbers, in %.

These recorded examples may help you get a feel for the data.
The compound identified as COC(=O)CSc1ccc(Cl)cc1 registered its growth at 111

Notebook: COc1ccc(Nc2nc(N)nc3c(=O)[nH]ccc23)cc1 , growth read as 104

compound CS(=O)(=O)c1ccc(C(=O)N/N=C/c2ccccc2Cl)cc1 , growth observed: 100

For O=C(CSc1nc2c(n1Nc1ccccc1)-c1ccccc1SC2)Nc1nccs1 the compound record lists growth as 102

So for CCCCCCCCCCCC1=NC(C)(C)CN1CCO , the logged growth turned out to be 29.1

Entry under test: CCCCCCCCCCCCCCCC1=NCCN1 . Its growth was 64.1

For each of the compounds below, state growth.
1. COc1cccc(-c2cc(-c3cccs3)c(C#N)c(=O)[nH]2)c1
2. CCN(CC)CCCCCCCCNc1c2ccc(Cl)cc2nc2ccc(OC)cc12
3. COc1cnc2c(c1)C(=O)c1c-2n(CCCNC(C)C)c(=O)c2cc(Cl)ccc12
4. CCN1C(=O)/C(=C/N2N=C(c3ccc(Cl)cc3)CC2c2ccc(OC)cc2)SC1=S (stereo not drawn)

Result:
1: 101; 2: -49.5; 3: -71.7; 4: 97.6
